Sourced from patent US7368424B2

- System: E. faecium L4001
- Type: cell-based, Enterococcus faecium
- experimental.parameters: L4001
*1 amine or outer side, *2 acyl side, *3 side chain or, on linkers, in order; H or OH if unused. Where a SMILES comes first, the peptide text is derived from it. Bridges are numbered along the chain shown (N, C = ends). [ ]: non-standard residue; d: D form. The star is where a group is joined. ξ: configuration not given here. Phe(3R-OH) = O=C([C@@H](N[*:1])[C@H](O[*:3])c1ccccc1)[*:2]; Phe(4-NO2) = N[C@@H](Cc1ccc([N+](=O)[O-])cc1)C(=O)O; Asn(3S-OH) = NC(=O)[C@@H](O)[C@H](N)C(=O)O; Leu(3R-OH) = CC(C)[C@@H](O)[C@H](N)C(=O)O; d(tBuAla) = CC(C)(C)C[C@@H](N)C(=O)O; dPhe(2-F) = N[C@H](Cc1ccccc1F)C(=O)O; 2Pal = N[C@@H](Cc1ccccn1)C(=O)O; aThr = C[C@H](O)[C@H](N)C(=O)O; ξIle = CC[C@H](C)C(N)C(=O)O; Ac6c = NC1(C(=O)O)CCCCC1; Cbz = O=C(OCc1ccccc1)*; Bn = c1ccc(C*)cc1; tBu = CC(C)(C)*
MIC E. faecium L4001 values, listed per item
Please answer in the form of a number followed by its unit of measurement.

molecule	assayed.system	experimental.result
CC[C@H](C)[C@@H]1NC(=O)[C@@H](CCCNC(=N)N)NC(=O)[C@H](CC(C)C)NC(=O)[C@H]([C@H](O)C(C)C)NC(=O)[C@@H](NC(=O)[C@H](CC(C)C)NC(=O)C2(N)CCCCC2)[C@@H](c2ccccc2)OC(=O)[C@H](CO)NC(=O)[C@H]([C@H](O)C(N)=O)NC(=O)CNC(=O)[C@H]([C@H](C)O)NC1=O [Example 57] (H-[Ac6c]L[Phe(3R-OH)][Leu(3R-OH)]L[dR]I[aThr]G[Asn(3S-OH)]S; ester 3-C)	E. faecium L4001	1 µg/mL

Look up and state reported MIC E. faecium L4001 for CC[C@H](C)[C@@H]1NC(=O)[C@@H](CCCNC(=N)N)NC(=O)[C@H](CC(C)C)NC(=O)[C@H]([C@H](O)C(C)C)NC(=O)[C@@H](NC(=O)[C@H](CC(C)C)NC(=O)[C@H](N)COC(C)(C)C)[C@@H](c2ccccc2)OC(=O)[C@H](CO)NC(=O)[C@H]([C@H](O)C(N)=O)NC(=O)CNC(=O)[C@H]([C@H](C)O)NC1=O [Example 47] (H-[dS](tBu)L[Phe(3R-OH)][Leu(3R-OH)]L[dR]I[aThr]G[Asn(3S-OH)]S; ester 3-C)
1 µg/mL

Give a short answer stating reported MIC E. faecium L4001 for CC[C@H](C)[C@@H]1NC(=O)[C@@H](CCCNC(=N)N)NC(=O)[C@H](CC(C)C)NC(=O)[C@H]([C@H](O)C(C)C)NC(=O)[C@@H](NC(=O)[C@H](Cc2ccccn2)NC(=O)[C@H](N)CC(C)(C)C)[C@@H](c2ccccc2)OC(=O)[C@H](CO)NC(=O)[C@H]([C@H](O)C(N)=O)NC(=O)CNC(=O)[C@H]([C@H](C)O)NC1=O [Example 97] (H-[d(tBuAla)][2Pal][Phe(3R-OH)][Leu(3R-OH)]L[dR]I[aThr]G[Asn(3S-OH)]S; ester 3-C) .
1 µg/mL

Provide only the value of recorded MIC E. faecium L4001 for CC[C@H](C)[C@@H]1NC(=O)[C@@H](CCCNC(=N)N)NC(=O)[C@H](CC(C)C)NC(=O)[C@H]([C@H](O)C(C)C)NC(=O)[C@@H](NC(=O)[C@H](CC(C)C)NC(=O)[C@H](N)CC(C)C)[C@@H](c2ccccc2)OC(=O)[C@H](CO)NC(=O)[C@H]([C@H](O)C(N)=O)NC(=O)CNC(=O)[C@H]([C@H](C)O)NC1=O.O=C(O)C(F)(F)F.O=C(O)C(F)(F)F [Example 1A, reference compound] (H-[dL]L[Phe(3R-OH)][Leu(3R-OH)]L[dR]I[aThr]G[Asn(3S-OH)]S; ester 3-C)
0.5 µg/mL

Provide one value: measured MIC E. faecium L4001 of CC[C@H](C)[C@@H]1NC(=O)[C@@H](CCCNC(=N)N)NC(=O)[C@H](CC(C)C)NC(=O)[C@H]([C@H](O)C(C)C)NC(=O)[C@@H](NC(=O)[C@H](Cc2ccc([N+](=O)[O-])cc2)NC(=O)[C@H](N)Cc2ccccc2)[C@@H](c2ccccc2)OC(=O)[C@H](CO)NC(=O)[C@H]([C@H](O)C(N)=O)NC(=O)CNC(=O)[C@H]([C@H](C)O)NC1=O.O=C(O)C(F)(F)F.O=C(O)C(F)(F)F [Example 81] (H-[dF][Phe(4-NO2)][Phe(3R-OH)][Leu(3R-OH)]L[dR]I[aThr]G[Asn(3S-OH)]S; ester 3-C)
0.25 µg/mL

Recall and state the measured MIC E. faecium L4001 for CC[C@H](C)[C@@H]1NC(=O)[C@@H](CCCNC(=N)N)NC(=O)[C@H](CC(C)C)NC(=O)[C@H]([C@H](O)C(C)C)NC(=O)[C@@H](NC(=O)[C@H](CC(C)C)NC(=O)[C@H](N)Cc2ccccc2)[C@@H](c2ccccc2)OC(=O)[C@H](CO)NC(=O)[C@H]([C@H](O)C(N)=O)NC(=O)CNC(=O)[C@H]([C@H](C)O)NC1=O [Example 38] (H-[dF]L[Phe(3R-OH)][Leu(3R-OH)]L[dR]I[aThr]G[Asn(3S-OH)]S; ester 3-C) .
0.5 µg/mL

Report MIC E. faecium L4001, nothing else, for this molecule: CC[C@H](C)[C@@H]1NC(=O)[C@@H](CCCNC(=N)N)NC(=O)[C@H](CC(C)C)NC(=O)[C@H]([C@H](O)C(C)C)NC(=O)[C@@H](NC(=O)[C@H](CC(C)C)NC(=O)[C@H](N)Cc2ccccc2F)[C@@H](c2ccccc2)OC(=O)[C@H](CO)NC(=O)[C@H]([C@H](O)C(N)=O)NC(=O)CNC(=O)[C@H]([C@H](C)O)NC1=O [Example 23] (H-[dPhe(2-F)]L[Phe(3R-OH)][Leu(3R-OH)]L[dR]I[aThr]G[Asn(3S-OH)]S; ester 3-C)
0.5 µg/mL

Fill in MIC E. faecium L4001 for record CC[C@H](C)[C@@H]1NC(=O)[C@@H](CCCNC(=N)N)NC(=O)[C@H](CC(C)C)NC(=O)[C@H]([C@H](O)C(C)C)NC(=O)[C@@H](NC(=O)[C@H](Cc2ccccc2)NC(=O)[C@H](N)CC(C)C)[C@@H](c2ccccc2)OC(=O)[C@H](CO)NC(=O)[C@H]([C@H](O)C(N)=O)NC(=O)CNC(=O)[C@H]([C@H](C)O)NC1=O.O=C(O)C(F)(F)F.O=C(O)C(F)(F)F [Example 74] (H-[dL]F[Phe(3R-OH)][Leu(3R-OH)]L[dR]I[aThr]G[Asn(3S-OH)]S; ester 3-C)
0.5 µg/mL

Assign MIC E. faecium L4001 to the following record: CC[C@H](C)C1NC(=O)[C@@H](CCCNC(=N)N)NC(=O)[C@H](CC(C)C)NC(=O)[C@H]([C@H](O)C(C)C)NC(=O)[C@@H](NC(=O)[C@H](CCCCNC(=O)OCc2ccccc2)NC(=O)[C@H](N)CC(C)(C)C)[C@@H](c2ccccc2)OC(=O)[C@H](CO)NC(=O)[C@H]([C@H](O)C(N)=O)NC(=O)CNC(=O)[C@H]([C@H](C)O)NC1=O.O=C(O)C(F)(F)F.O=C(O)C(F)(F)F (stereo partly drawn) [Example 107] (H-[d(tBuAla)]K(Cbz)[Phe(3R-OH)][Leu(3R-OH)]L[dR][ξIle][aThr]G[Asn(3S-OH)]S; ester 3-C)
0.5 µg/mL

Input CC[C@H](C)C1NC(=O)[C@@H](CCCNC(=N)N)NC(=O)[C@H](CC(C)C)NC(=O)[C@H]([C@H](O)C(C)C)NC(=O)[C@@H](NC(=O)[C@H](COCc2ccccc2)NC(=O)[C@H](N)CC(C)(C)C)[C@@H](c2ccccc2)OC(=O)[C@H](CO)NC(=O)[C@H]([C@H](O)C(N)=O)NC(=O)CNC(=O)[C@H]([C@H](C)O)NC1=O.O=C(O)C(F)(F)F.O=C(O)C(F)(F)F (stereo partly drawn) [Example 99] (H-[d(tBuAla)]S(Bn)[Phe(3R-OH)][Leu(3R-OH)]L[dR][ξIle][aThr]G[Asn(3S-OH)]S; ester 3-C) , output reported MIC E. faecium L4001.
0.063 µg/mL
